- Tested on: MOG-G-CCM (Low Grade Glioma)
- TEST: combination Emax (second highest fraction inhibited in the dose matrix, 72 h); higher = more inhibition; extreme values may be limits of the assay
Provide the reported combination Emax of each item.
# answer = number (no unit)

Query string: Kindly state the measured combination Emax obtained for Cc1c2c(nn1C)CSCc1cc(n(C)n1)CSc1cc(c3ccccc3c1)OCCCc1c(C(=O)O)n(C)c3c-2c(Cl)ccc13 [AZD5991] + CC(=O)O[C@H]1C(=O)[C@@]2(C)[C@H]([C@H](OC(=O)c3ccccc3)[C@]3(O)C[C@H](OC(=O)[C@H](O)[C@@H](NC(=O)c4ccccc4)c4ccccc4)C(C)=C1C3(C)C)[C@]1(OC(C)=O)CO[C@@H]1C[C@@H]2O [Paclitaxel] (first compound max 1 µM, 7x7, partner max 3 µM) with MOG-G-CCM (Low Grade Glioma).
Result string: 0.936

Query string: Kindly state the measured combination Emax obtained for Cc1nc(-c2cn3c(n2)-c2ccc(-c4cnn(C(C)(C)C(N)=O)c4)cc2OCC3)n(C(C)C)n1 [Taselisib] + O=C(Nc1ccc2[nH]nc(-c3ccncc3)c2c1)[C@@H]1CCN(CC(=O)N2CCN(c3ccc(-c4ncccn4)cc3)CC2)C1 [SCH772984] (first compound max 10 µM, 7x7, partner max 5 µM) with MOG-G-CCM (Low Grade Glioma).
Result string: 0.577

###

Provide the reported combination Emax of each item.
- System: NCCIT (Other Solid Carcinomas)
- TEST: combination Emax (second highest fraction inhibited in the dose matrix, 72 h); higher = more inhibition; extreme values may be limits of the assay
# answer = number (no unit)

Query string: combination Emax for Cc1cc2ncnn2cc1Nc1ncc2c(n1)n(C1CCOCC1)c(=O)n2C [AZD7648] + COc1cc([C@@H]2c3cc4c(cc3[C@@H](O[C@@H]3O[C@@H]5CO[C@@H](C)O[C@H]5[C@H](O)[C@H]3O)[C@H]3COC(=O)[C@H]23)OCO4)cc(OC)c1O [Etoposide] (first compound max 10 µM, 7x7, partner max 10 µM) ?
Result string: 0.495

Query string: combination Emax for CC(=O)c1c(C)c2cnc(Nc3ccc(N4CCNCC4)cn3)nc2n(C2CCCC2)c1=O [Palbociclib] + Cc1c2c(nn1C)CSCc1cc(n(C)n1)CSc1cc(c3ccccc3c1)OCCCc1c(C(=O)O)n(C)c3c-2c(Cl)ccc13 [AZD5991] (first compound max 10 µM, 7x7, partner max 1 µM) ?
Result string: 0.809

Query string: combination Emax for NC1(C(=O)N[C@@H](CCO)c2ccc(Cl)cc2)CCN(c2ncnc3[nH]ccc23)CC1 [Capivasertib] + COc1nnc2ccc(N3CCC(c4ccc(OCCN5CCN(C)C(=O)[C@H]5C)cc4)CC3)nn12 [AZD5153] (first compound max 10 µM, 7x7, partner max 1 µM) ?
Result string: 0.873

Query string: combination Emax for CCN(CCO)CCCOc1ccc2c(Nc3cc(CC(=O)Nc4cccc(F)c4)[nH]n3)ncnc2c1 [AZD2811] + C=CCn1c(=O)c2cnc(Nc3ccc(N4CCN(C)CC4)cc3)nc2n1-c1cccc(C(C)(C)O)n1 [AZD1775] (first compound max 1 µM, partner max 1 µM) ?
Result string: 0.781

Query string: combination Emax for CC(=O)c1c(C)c2cnc(Nc3ccc(N4CCNCC4)cn3)nc2n(C2CCCC2)c1=O [Palbociclib] + CC1(C)CCC(CN2CCN(c3ccc(C(=O)NS(=O)(=O)c4ccc(NCC5CCOCC5)c([N+](=O)[O-])c4)c(Oc4cnc5[nH]ccc5c4)c3)CC2)=C(c2ccc(Cl)cc2)C1 [Venetoclax] (first compound max 10 µM, 7x7, partner max 1 µM) ?
Result string: 0.279

Query string: combination Emax for CN(CCO)CC[C@H](CSc1ccccc1)Nc1ccc(S(=O)(=O)NC(=O)c2ccc(N3CCC([C@@H](O)c4ccccc4-c4ccc(Cl)cc4)CC3)cc2)cc1S(=O)(=O)C(F)(F)F [AZD4320] + CC(=O)O[C@H]1C(=O)[C@@]2(C)[C@H]([C@H](OC(=O)c3ccccc3)[C@]3(O)C[C@H](OC(=O)[C@H](O)[C@@H](NC(=O)c4ccccc4)c4ccccc4)C(C)=C1C3(C)C)[C@]1(OC(C)=O)CO[C@@H]1C[C@@H]2O [Paclitaxel] (first compound max 1 µM, 7x7, partner max 3 µM) ?
Result string: 0.989

Query string: combination Emax for COc1nnc2ccc(N3CCC(c4ccc(OCCN5CCN(C)C(=O)[C@H]5C)cc4)CC3)nn12 [AZD5153] + CC1(C)CCC(CN2CCN(c3ccc(C(=O)NS(=O)(=O)c4ccc(NCC5CCOCC5)c([N+](=O)[O-])c4)c(Oc4cnc5[nH]ccc5c4)c3)CC2)=C(c2ccc(Cl)cc2)C1 [Venetoclax] (first compound max 1 µM, 7x7, partner max 1 µM) ?
Result string: 0.807

Query string: combination Emax for COc1cc2ncnc(Nc3ccc(F)c(Cl)c3)c2cc1OCCCN1CCOCC1 [Gefitinib] + CC(C)n1c(=O)n(C)c2cnc3cc(F)c(-c4ccc(OCCCN5CCCCC5)nc4)cc3c21 [AZD1390] (first compound max 10 µM, 7x7, partner max 0.3 µM) ?
Result string: 0.418

Query string: combination Emax for C=CCn1c(=O)c2cnc(Nc3ccc(N4CCN(C)CC4)cc3)nc2n1-c1cccc(C(C)(C)O)n1 [AZD1775] + C1CN(CCC1(C(=O)N[C@@H](CCO)C2=CC=C(C=C2)Cl)N)C3=NC=NC4=C3C=CN4 [Capivasertib] (first compound max 3 µM, partner max 3 µM) ?
Result string: 0.963

Query string: combination Emax for Cc1cc2ncnn2cc1Nc1ncc2c(n1)n(C1CCOCC1)c(=O)n2C [AZD7648] + O=C(c1cc(Cc2n[nH]c(=O)c3ccccc23)ccc1F)N1CCN(C(=O)C2CC2)CC1 [Olaparib] (first compound max 10 µM, 7x7, partner max 10 µM) ?
Result string: 0.192

Query string: combination Emax for CN(C)CCCOc1ccc(-c2ccc3ncc4c(c3c2)n(C2CCOCC2)c(=O)n4C)cn1 [AZD0156] + O=C(c1cc(Cc2n[nH]c(=O)c3ccccc23)ccc1F)N1CCN(C(=O)C2CC2)CC1 [Olaparib] (first compound max 3 µM, partner max 3 µM) ?
Result string: 0.194

Query string: combination Emax for CC1(C)CCC(CN2CCN(c3ccc(C(=O)NS(=O)(=O)c4ccc(NCC5CCOCC5)c([N+](=O)[O-])c4)c(Oc4cnc5[nH]ccc5c4)c3)CC2)=C(c2ccc(Cl)cc2)C1 [Venetoclax] + CN(C)CCCOc1ccc(-c2ccc3ncc4c(c3c2)n(C2CCOCC2)c(=O)n4C)cn1 [AZD0156] (first compound max 1 µM, 7x7, partner max 1 µM) ?
Result string: 0.275

Query string: combination Emax for CN(CCO)CC[C@H](CSc1ccccc1)Nc1ccc(S(=O)(=O)NC(=O)c2ccc(N3CCC([C@@H](O)c4ccccc4-c4ccc(Cl)cc4)CC3)cc2)cc1S(=O)(=O)C(F)(F)F [AZD4320] + CS(=O)(=O)CCNCc1ccc(-c2ccc3ncnc(Nc4ccc(OCc5cccc(F)c5)c(Cl)c4)c3c2)o1 [Lapatinib] (first compound max 1 µM, 7x7, partner max 10 µM) ?
Result string: 0.243

###

Provide the reported Bliss excess of each item.
- Test system: NCI-H3122 (Lung Adenocarcinoma);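 note: after 72 h of two-drug dosing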
- TEST: Bliss excess, mean over the matrix (fraction); higher = more synergy
# answer = number (no unit)

Query string: Bliss excess for NC1(C(=O)N[C@@H](CCO)c2ccc(Cl)cc2)CCN(c2ncnc3[nH]ccc23)CC1 [Capivasertib] + CC(C)n1c(=O)n(C)c2cnc3cc(F)c(-c4ccc(OCCCN5CCCCC5)nc4)cc3c21 [AZD1390] (first compound max 10 µM, 7x7, partner max 0.3 µM) ?
Result string: -0.0304

Query string: Bliss excess for C[C@@H](Nc1cc(F)cc(F)c1)c1cc(C(=O)N(C)C)cc2c(=O)cc(N3CCOCC3)oc12 [AZD8186] + CC(=O)c1c(C)c2cnc(Nc3ccc(N4CCNCC4)cn3)nc2n(C2CCCC2)c1=O [Palbociclib] (first compound max 10 µM, 7x7, partner max 10 µM) ?
Result string: 0.0528

Query string: Bliss excess for CC1(C)CCC(CN2CCN(c3ccc(C(=O)NS(=O)(=O)c4ccc(NCC5CCOCC5)c([N+](=O)[O-])c4)c(Oc4cnc5[nH]ccc5c4)c3)CC2)=C(c2ccc(Cl)cc2)C1 [Venetoclax] + CN(C)CCCOc1ccc(-c2ccc3ncc4c(c3c2)n(C2CCOCC2)c(=O)n4C)cn1 [AZD0156] (first compound max 1 µM, 7x7, partner max 1 µM) ?
Result string: -0.0656

Query string: Bliss excess for Cc1cc2ncnn2cc1Nc1ncc2c(n1)n(C1CCOCC1)c(=O)n2C [AZD7648] + O=C(c1cc(Cc2n[nH]c(=O)c3ccccc23)ccc1F)N1CCN(C(=O)C2CC2)CC1 [Olaparib] (first compound max 10 µM, 7x7, partner max 10 µM) ?
Result string: -0.0505

Query string: Bliss excess for Cc1nc(-c2cn3c(n2)-c2ccc(-c4cnn(C(C)(C)C(N)=O)c4)cc2OCC3)n(C(C)C)n1 [Taselisib] + O=C(Nc1ccc2[nH]nc(-c3ccncc3)c2c1)[C@@H]1CCN(CC(=O)N2CCN(c3ccc(-c4ncccn4)cc3)CC2)C1 [SCH772984] (first compound max 10 µM, 7x7, partner max 5 µM) ?
Result string: 0.126

Query string: Bliss excess for COc1nnc2ccc(N3CCC(c4ccc(OCCN5CCN(C)C(=O)[C@H]5C)cc4)CC3)nn12 [AZD5153] + Cn1cnc2c(F)c(Nc3ccc(Br)cc3Cl)c(C(=O)NOCCO)cc21 [Selumetinib] (first compound max 1 µM, 7x7, partner max 10 µM) ?
Result string: -0.0818

Query string: Bliss excess for O=C(c1cc(Cc2n[nH]c(=O)c3ccccc23)ccc1F)N1CCN(C(=O)C2CC2)CC1 [Olaparib] + CC1(C)CCC(CN2CCN(c3ccc(C(=O)NS(=O)(=O)c4ccc(NCC5CCOCC5)c([N+](=O)[O-])c4)c(Oc4cnc5[nH]ccc5c4)c3)CC2)=C(c2ccc(Cl)cc2)C1 [Venetoclax] (first compound max 10 µM, 7x7, partner max 1 µM) ?
Result string: -0.0681
